test: Biodistribution of ^111In-labelled fragments in CD1 nu/nu mice without tumours; type: in vivo, mouse; conditions: CD1 nu/nu, mouse, in vivo, iv, 100 kBq, total radioactivity, Biodistribution of fragment, Pancreas
Where a SMILES comes first, the peptide text is derived from it. The star is where a group is joined. NODAGA = O=C(O)CN1CCN(CC(=O)O)CCN(C(CCC(=O)*)C(=O)O)CC1
Result Type: tissue uptake at 4 h (%ID/g)
Return type: number; implicit unit %ID/g.

See these solved cases before continuing.
Molecule	Readout Unit	tissue uptake at 4 h
NC(=O)[C@H](CCCCNC(=O)CCC(C(=O)O)N1CCN(CC(=O)O)CCN(CC(=O)O)CC1)NC(=O)[C@H](CO)NC(=O)[C@@H]1CCCN1C(=O)[C@@H]1CCCN1C(=O)[C@@H]1CCCN1C(=O)[C@@H](N)CCC(=O)O (some centres unmarked) [CL3-F2] (H-EPPPSK(NODAGA)-NH2)	%ID/g	0.01
CC(C)[C@H](NC(=O)[C@H](C)NC(=O)[C@@H](N)CCC(=O)O)C(=O)N[C@@H](CCCCNC(=O)CCC(C(=O)O)N1CCN(CC(=O)O)CCN(CC(=O)O)CC1)C(N)=O (some centres unmarked) [CL1-F2] (H-EAVK(NODAGA)-NH2)	%ID/g	0.01
CC(C)[C@H](NC(=O)[C@H](C)NC(=O)[C@H](CCC(=O)O)NC(=O)[C@@H](N)CCC(=O)O)C(=O)N[C@@H](CCCCNC(=O)CCC(C(=O)O)N1CCN(CC(=O)O)CCN(CC(=O)O)CC1)C(N)=O (some centres unmarked) [CL1-F1] (H-EEAVK(NODAGA)-NH2)	%ID/g	0.01
NC(=O)[C@H](CCCCNC(=O)CCC(C(=O)O)N1CCN(CC(=O)O)CCN(CC(=O)O)CC1)NC(=O)[C@H](Cc1ccccc1)NC(=O)[C@@H](N)CC(=O)O (some centres unmarked)	%ID/g	0.02

Okay, next one:
Record NC(=O)[C@@H](N)CCCCNC(=O)CCC(C(=O)O)N1CCN(CC(=O)O)CCN(CC(=O)O)CC1 (some centres unmarked) . Reported tissue uptake at 4 h: 0.01

---

tissue uptake at 4 h values for the compounds below.
experiment: Biodistribution of ^111In-labelled fragments in CD1 nu/nu mice without tumours; format: in vivo, mouse; conditions: CD1 nu/nu, mouse, in vivo, iv, 100 kBq, total radioactivity, Biodistribution of fragment, Kidneys
Where a SMILES comes first, the peptide text is derived from it. The star is where a group is joined. NODAGA = O=C(O)CN1CCN(CC(=O)O)CCN(C(CCC(=O)*)C(=O)O)CC1
Return type: number; implicit unit %ID/g.

See these solved cases before continuing.
Compound	tissue uptake at 4 h, %ID/g
CC(C)[C@H](NC(=O)[C@H](C)NC(=O)[C@@H](N)CCC(=O)O)C(=O)N[C@@H](CCCCNC(=O)CCC(C(=O)O)N1CCN(CC(=O)O)CCN(CC(=O)O)CC1)C(N)=O (some centres unmarked) [CL1-F2] (H-EAVK(NODAGA)-NH2)	2.97
CC(C)[C@H](NC(=O)[C@H](C)NC(=O)[C@H](CCC(=O)O)NC(=O)[C@@H](N)CCC(=O)O)C(=O)N[C@@H](CCCCNC(=O)CCC(C(=O)O)N1CCN(CC(=O)O)CCN(CC(=O)O)CC1)C(N)=O (some centres unmarked) [CL1-F1] (H-EEAVK(NODAGA)-NH2)	2.28
NC(=O)[C@@H](N)CCCCNC(=O)CCC(C(=O)O)N1CCN(CC(=O)O)CCN(CC(=O)O)CC1 (some centres unmarked) [CL1-F3]	1.72
NC(=O)[C@H](CCCCNC(=O)CCC(C(=O)O)N1CCN(CC(=O)O)CCN(CC(=O)O)CC1)NC(=O)[C@H](CO)NC(=O)[C@@H]1CCCN1C(=O)[C@@H]1CCCN1C(=O)[C@@H]1CCCN1C(=O)[C@@H](N)CCC(=O)O (some centres unmarked) [CL3-F2] (H-EPPPSK(NODAGA)-NH2)	2.22

Okay, next one:
Record NC(=O)[C@H](CCCCNC(=O)CCC(C(=O)O)N1CCN(CC(=O)O)CCN(CC(=O)O)CC1)NC(=O)[C@H](Cc1ccccc1)NC(=O)[C@@H](N)CC(=O)O (some centres unmarked) [CL2-F2] . Reported tissue uptake at 4 h: 2.11

---

test: Biodistribution of ^111In-labelled fragments in CD1 nu/nu mice without tumours; assay type: in vivo, mouse; settings: CD1 nu/nu, mouse, kidneys, iv, 100 kBq, total radioactivity, ^111In-labelled fragment ~100 kBq i.v. tail vein, mice without tumours, after 4 h; read-out: Biodistribution of fragment, Kidneys
Where a SMILES comes first, the peptide text is derived from it. The star is where a group is joined. NODAGA = O=C(O)CN1CCN(CC(=O)O)CCN(C(CCC(=O)*)C(=O)O)CC1
Result Type: tissue uptake at 4 h
Please provide the amount together with its unit, number first.

Molecule	Reading
CSCC[C@H](NC(=O)[C@H](Cc1ccc(O)cc1)NC(=O)[C@@H](N)CC(=O)O)C(=O)NCC(=O)N[C@@H](Cc1c[nH]c2ccccc12)C(=O)N[C@@H](CCSC)C(=O)N[C@@H](CC(=O)O)C(=O)N[C@@H](Cc1ccccc1)C(=O)N[C@@H](CCCCNC(=O)CCC(C(=O)O)N1CCN(CC(=O)O)CCN(CC(=O)O)CC1)C(N)=O (some centres unmarked)	2.5 %ID/g

Record NC(=O)[C@H](CCCCNC(=O)CCC(C(=O)O)N1CCN(CC(=O)O)CCN(CC(=O)O)CC1)NC(=O)[C@H](CO)NC(=O)[C@@H]1CCCN1C(=O)[C@@H]1CCCN1C(=O)[C@@H]1CCCN1C(=O)[C@H](CCC(=O)O)NC(=O)[C@@H](N)CC(=O)O (some centres unmarked) [CL3-F1] (H-DEPPPSK(NODAGA)-NH2) . Reported tissue uptake at 4 h: 1.71 %ID/g

---

assay: Biodistribution of ^111In-labelled fragments in CD1 nu/nu mice without tumours; type: in vivo, mouse; settings: CD1 nu/nu, mouse, in vivo, iv, 100 kBq, total radioactivity, Biodistribution of fragment, Lungs
Where a SMILES comes first, the peptide text is derived from it. The star is where a group is joined. NODAGA = O=C(O)CN1CCN(CC(=O)O)CCN(C(CCC(=O)*)C(=O)O)CC1
tissue uptake at 4 h values for the molecules below.
Return type: number; implicit unit %ID/g.

See these solved cases before continuing.
Molecule	Reading
CC(C)[C@H](NC(=O)[C@H](C)NC(=O)[C@@H](N)CCC(=O)O)C(=O)N[C@@H](CCCCNC(=O)CCC(C(=O)O)N1CCN(CC(=O)O)CCN(CC(=O)O)CC1)C(N)=O (some centres unmarked) [CL1-F2] (H-EAVK(NODAGA)-NH2)	0.04
NC(=O)[C@@H](N)CCCCNC(=O)CCC(C(=O)O)N1CCN(CC(=O)O)CCN(CC(=O)O)CC1 (some centres unmarked)	0.03
NC(=O)[C@H](CCCCNC(=O)CCC(C(=O)O)N1CCN(CC(=O)O)CCN(CC(=O)O)CC1)NC(=O)[C@H](CO)NC(=O)[C@@H]1CCCN1C(=O)[C@@H]1CCCN1C(=O)[C@@H]1CCCN1C(=O)[C@@H](N)CCC(=O)O (some centres unmarked) [CL3-F2] (H-EPPPSK(NODAGA)-NH2)	0.04
NC(=O)[C@H](CCCCNC(=O)CCC(C(=O)O)N1CCN(CC(=O)O)CCN(CC(=O)O)CC1)NC(=O)[C@H](Cc1ccccc1)NC(=O)[C@@H](N)CC(=O)O (some centres unmarked)	0.03

Record CC(C)[C@H](NC(=O)[C@H](C)NC(=O)[C@H](CCC(=O)O)NC(=O)[C@@H](N)CCC(=O)O)C(=O)N[C@@H](CCCCNC(=O)CCC(C(=O)O)N1CCN(CC(=O)O)CCN(CC(=O)O)CC1)C(N)=O (some centres unmarked) [CL1-F1] (H-EEAVK(NODAGA)-NH2) . Reported tissue uptake at 4 h: 0.03

---

test: Biodistribution of ^111In-labelled fragments in CD1 nu/nu mice without tumours; format: in vivo, mouse; details: CD1 nu/nu, mouse, kidneys, iv, 100 kBq, total radioactivity, ^111In-labelled fragments, mice without tumours, 4 h after injection; summary in text of S3 Table; read-out: activity retained in the kidneys at the end of the experiment
Where a SMILES comes first, the peptide text is derived from it. The star is where a group is joined. NODAGA = O=C(O)CN1CCN(CC(=O)O)CCN(C(CCC(=O)*)C(=O)O)CC1
Result Type: tissue uptake at 4 h

Compound	tissue uptake at 4 h
NC(=O)[C@H](CCCCNC(=O)CCC(C(=O)O)N1CCN(CC(=O)O)CCN(CC(=O)O)CC1)NC(=O)[C@H](CO)NC(=O)[C@@H]1CCCN1C(=O)[C@@H]1CCCN1C(=O)[C@@H]1CCCN1C(=O)[C@H](CCC(=O)O)NC(=O)[C@@H](N)CC(=O)O (some centres unmarked) [CL3-F1] (H-DEPPPSK(NODAGA)-NH2)	< 4 %ID/g

Okay, next one:
Record CSCC[C@H](NC(=O)[C@H](Cc1ccc(O)cc1)NC(=O)[C@@H](N)CC(=O)O)C(=O)NCC(=O)N[C@@H](Cc1c[nH]c2ccccc12)C(=O)N[C@@H](CCSC)C(=O)N[C@@H](CC(=O)O)C(=O)N[C@@H](Cc1ccccc1)C(=O)N[C@@H](CCCCNC(=O)CCC(C(=O)O)N1CCN(CC(=O)O)CCN(CC(=O)O)CC1)C(N)=O (some centres unmarked) . Reported tissue uptake at 4 h: < 4 %ID/g
